# Test system: SNB-19
# PROCEDURE DETAILS: NCI tumour cell line growth inhibition, 48 h
Activity calls are given as the source filed them. No stated cut-off is given here; in the data, active = GI50 up to about 1.1 µM and inactive = higher.
Your reply should match one of these outcome classes. 1 (active), 0 (inactive)

Test call, this compound: `COC(=O)CN1CCN(c2cccc3c2CCCC3)CC1` 0

Same lookup for CCCNCCCC(NC(C)=O)C(=O)NCc1ccccc1 (stereo unspecified) , please. 0

Same lookup for `Cc1oc2nc(N(C)C)n3c(C)nnc3c2c1C` , please. 0

Same lookup for `NS(=O)(=O)c1ccc(Nc2c3ccccc3nc3c(C(=O)NCCO)cccc23)cc1` , please. 1

Same lookup for `c1csc(-c2nnc(C34CC5CC(CC(C5)C3)C4)o2)c1` , please. 0
